- Test system: human red blood cells
- measurement description: Hemolysis assay
- Assay type: cell-based
- run conditions: red cells of human
Peptide text beside a SMILES is read from it.
outcome measure: HC50

Requested read-out: HC50. Entry: CC[C@H](C)[C@H](NC(=O)[C@H](CCCNC(=N)N)NC(=O)[C@H](CCCNC(=N)N)NC(=O)[C@H](CC(C)C)NC(=O)[C@@H](N)Cc1c[nH]c2ccccc12)C(=O)N[C@@H](CCCCN)C(=O)N[C@@H](C)C(=O)N[C@@H](Cc1c[nH]c2ccccc12)C(=O)N[C@@H](CC(C)C)C(=O)N[C@@H](CCCNC(=N)N)C(=O)N[C@@H](CCCNC(=N)N)C(=O)N[C@@H](CCCCN)C(=O)N[C@@H](CCCNC(=N)N)C(=O)N[C@@H](CCCCN)C(=O)O [RR3] (H-WLRRIKAWLRRKRK-OH; N-terminus and C-terminus assumed)
> 256 µM
